Assignment: determine reported Dmax for the given compounds.
molecular target: SMARCA2 (Homo sapiens); test: MSD SMARCA2 degradation in NCI-H1299 cell line (24 h); format: cell-based; design: HC: NCI-H1299 cells treated with DMSO; host or cells: NCI-H1299; details: NCI-H1299, NCI-H1299 cells

{"compound": "Cn1c(=O)n(C2CCC(=O)NC2=O)c2ccc(CCCCCCCOc3ccc(CN4CCN(c5cc(-c6ccccc6O)nnc5N)CC4)cc3)cc21 (stereo not drawn)", "Dmax": "< 50%"}

Count: 8. Required value per item: Dmax.
1. Cn1c(=O)n(C2CCC(=O)NC2=O)c2ccc(CCCOc3ccc(CN4CCN(c5cc(-c6ccccc6O)nnc5N)CC4)cc3)cc21 (stereo not drawn)
2. Cn1c(=O)n(C2CCC(=O)NC2=O)c2cccc(CNCCCCc3cn(Cc4cccc(N5C[C@H]6C[C@@H]5CN6/C=C/C(=O)c5ccccc5O)n4)nn3)c21 (stereo partly drawn)
3. Cn1c(=O)n(C2CCC(=O)NC2=O)c2ccc(CN3CCC(c4cnc(N5C6CCC5CN(c5cc(-c7ccccc7O)nnc5N)C6)nc4)CC3)cc21 (stereo not drawn)
4. Cn1c(=O)n(C2CCC(=O)NC2=O)c2cccc(CCCO[C@H]3C[C@H](N(C)Cc4ccc(N5CCN(c6cc(-c7ccccc7O)nnc6N)CC5)cc4)C3)c21 (stereo partly drawn)
5. Cc1ncsc1-c1ccc(CNC(=O)[C@@H]2C[C@@H](O)CN2C(=O)[C@@H](NC(=O)CCCCN2CCN(Cc3ccc(-c4cc(-c5ccccc5O)nnc4N)cc3)CC2)C(C)(C)C)cc1
6. Cn1c(=O)n(C2CCC(=O)NC2=O)c2ccc(CCCCCCOc3ccc(CN4CCN(c5cc(-c6ccccc6O)nnc5N)CC4)cc3)cc21 (stereo not drawn)
7. Cn1c(=O)n(C2CCC(=O)NC2=O)c2ccc(CCCCOc3cccc(CN4CCN(c5cc(-c6ccccc6O)nnc5N)CC4)c3)cc21 (stereo not drawn)
8. Cc1ncsc1-c1ccc(CNC(=O)[C@@H]2C[C@@H](O)CN2C(=O)[C@@H](NC(=O)CN2CCCC(n3cc(-c4cc(-c5ccccc5O)nnc4N)cn3)C2)C(C)(C)C)cc1 (stereo partly drawn)

< 50%
< 50%
> 90%
70 to 90%
< 50%
< 50%
< 50%
< 50%

# batch size: 3; output Dmax per entry
1. Cn1c(=O)n(C2CCC(=O)NC2=O)c2cccc(CCCCCCCN3CCC(n4cc(-c5cc(-c6ccccc6O)nnc5N)cn4)CC3)c21 (stereo not drawn)
2. CN(Cc1ccc(N2CCN(c3cc(-c4ccccc4O)nnc3N)CC2)cc1)CC1CCN(c2ccc3c(c2)n(C)c(=O)n3C2CCC(=O)NC2=O)CC1 (stereo not drawn)
3. Cn1c(=O)n(C2CCC(=O)NC2=O)c2cccc(CCCN3CCCC(n4cc(-c5cc(-c6ccccc6O)nnc5N)cn4)C3)c21 (stereo not drawn)

["70 to 90%", "50 to 70%", "> 90%"]

====

For each entry below, report its Dmax value.
biological target: SMARCA2 (Homo sapiens, UniProt P51531); assay: SMARCA2 Western blot MV4-11 degradation; type: cell-based; conditions: MV4-11, MV4-11 cells, 24 h, read-out: SMARCA2 WB MV411 degradation 24 h: Average Dmax %
Sequence (P51531 whole entry): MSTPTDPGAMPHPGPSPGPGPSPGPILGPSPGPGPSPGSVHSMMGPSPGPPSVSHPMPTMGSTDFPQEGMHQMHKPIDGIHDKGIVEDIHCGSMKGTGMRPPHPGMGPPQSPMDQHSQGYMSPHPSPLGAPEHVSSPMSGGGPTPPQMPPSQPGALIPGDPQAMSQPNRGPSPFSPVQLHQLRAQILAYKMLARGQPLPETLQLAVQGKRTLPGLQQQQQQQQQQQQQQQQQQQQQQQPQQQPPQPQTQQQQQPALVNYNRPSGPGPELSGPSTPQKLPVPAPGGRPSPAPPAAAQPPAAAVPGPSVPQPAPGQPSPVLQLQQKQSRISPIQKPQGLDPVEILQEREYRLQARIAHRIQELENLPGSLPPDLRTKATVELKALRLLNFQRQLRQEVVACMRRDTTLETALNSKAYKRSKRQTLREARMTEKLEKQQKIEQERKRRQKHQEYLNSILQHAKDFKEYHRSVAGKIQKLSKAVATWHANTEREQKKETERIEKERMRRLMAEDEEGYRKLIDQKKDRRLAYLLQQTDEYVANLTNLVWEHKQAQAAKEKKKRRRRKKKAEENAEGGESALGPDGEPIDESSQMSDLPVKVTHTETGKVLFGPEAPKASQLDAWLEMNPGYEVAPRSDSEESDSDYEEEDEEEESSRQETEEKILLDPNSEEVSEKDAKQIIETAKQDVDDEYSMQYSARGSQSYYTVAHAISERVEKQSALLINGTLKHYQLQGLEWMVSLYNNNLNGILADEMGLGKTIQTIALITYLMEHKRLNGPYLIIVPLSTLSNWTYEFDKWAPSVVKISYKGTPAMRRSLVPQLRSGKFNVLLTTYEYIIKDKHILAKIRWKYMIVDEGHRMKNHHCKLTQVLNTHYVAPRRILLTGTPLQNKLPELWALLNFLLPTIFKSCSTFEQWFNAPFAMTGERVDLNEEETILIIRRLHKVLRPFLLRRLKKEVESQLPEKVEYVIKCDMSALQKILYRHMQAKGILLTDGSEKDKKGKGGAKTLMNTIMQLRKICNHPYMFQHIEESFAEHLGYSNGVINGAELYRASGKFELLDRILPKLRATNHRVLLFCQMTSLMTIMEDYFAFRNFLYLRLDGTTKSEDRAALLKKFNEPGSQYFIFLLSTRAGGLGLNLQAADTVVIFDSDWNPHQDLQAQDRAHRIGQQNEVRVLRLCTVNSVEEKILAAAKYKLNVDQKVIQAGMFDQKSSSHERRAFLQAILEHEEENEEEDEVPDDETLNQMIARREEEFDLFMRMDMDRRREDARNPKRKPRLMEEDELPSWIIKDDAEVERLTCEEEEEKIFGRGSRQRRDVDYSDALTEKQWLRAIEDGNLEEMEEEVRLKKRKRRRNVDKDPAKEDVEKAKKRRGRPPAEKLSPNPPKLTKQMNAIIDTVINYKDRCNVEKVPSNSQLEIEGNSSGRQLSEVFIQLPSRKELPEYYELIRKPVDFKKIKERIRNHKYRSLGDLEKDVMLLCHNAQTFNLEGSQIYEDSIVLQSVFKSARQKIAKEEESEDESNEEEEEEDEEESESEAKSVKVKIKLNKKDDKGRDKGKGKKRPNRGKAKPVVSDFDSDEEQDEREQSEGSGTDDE

Worked set:
{"compound": "Cc1ncsc1-c1ccc(CNC(=O)[C@@H]2C[C@@H](O)CN2C(=O)[C@@H](NC(=O)[C@H]2CC[C@H](c3cnc(N4C5CCC4CN(c4cc(-c6ccccc6O)nnc4N)C5)nc3C)CC2)C(C)(C)C)cc1", "assay-target": "SMARCA2 (Homo sapiens, UniProt P51531)", "Dmax": "> 90%"}
{"compound": "CC(=O)Nc1cc(-c2scnc2C)ccc1CNC(=O)[C@@H]1C[C@@H](O)CN1C(=O)[C@@H](NC(=O)[C@H]1CC[C@H](c2cnc(N3C4CCC3CN(c3cc(-c5ccccc5O)nnc3N)C4)nc2)CC1)C(C)(C)C", "assay-target": "SMARCA2 (Homo sapiens, UniProt P51531)", "Dmax": "> 90%"}
{"compound": "Cc1ncsc1-c1ccc(CNC(=O)[C@@H]2C[C@@H](O)CN2C(=O)[C@@H](NC(=O)[C@H]2CC3(C2)C[C@H](N2CCC(n4cc(-c5cc(-c6ccccc6O)nnc5N)cn4)CC2)C3)C(C)(C)C)cc1 (stereo partly drawn)", "assay-target": "SMARCA2 (Homo sapiens, UniProt P51531)", "Dmax": "70 to 90%"}
{"compound": "Cc1ncsc1-c1ccc(CNC(=O)[C@@H]2C[C@@H](O)CN2C(=O)[C@@H](NC(=O)CN2CCN(C3CCC(c4cnc(N5C6CCC5CN(c5cc(-c7ccccc7O)nnc5N)C6)nc4)CC3)CC2)C(C)(C)C)cc1 (stereo partly drawn)", "assay-target": "SMARCA2 (Homo sapiens, UniProt P51531)", "Dmax": "> 90%"}
{"compound": "Cc1ncsc1-c1ccc(CNC(=O)[C@@H]2C[C@@H](O)CN2C(=O)[C@@H](NC(=O)C2CCC(c3cnc(N4C5CCC4CN(c4cc(-c6ccccc6O)nnc4N)C5)nc3)CC2C)C(C)(C)C)cc1 (stereo partly drawn)", "assay-target": "SMARCA2 (Homo sapiens, UniProt P51531)", "Dmax": "> 90%"}

For every item below, please supply its Dmax.
1. Cc1ncsc1-c1ccc(CNC(=O)[C@@H]2C[C@@H](O)CN2C(=O)[C@@H](NC(=O)CN2CCN([C@H]3CC[C@H](c4cnc(N5C6CCC5CN(c5cc(-c7ccccc7O)nnc5N)C6)nc4)CC3)CC2)C(C)(C)C)cc1 (single isomer, unassigned)
2. Cc1ncsc1-c1ccc(CNC(=O)[C@@H]2C[C@@H](O)CN2C(=O)[C@@H](NC(=O)C2CC(N3CCC(n4cc(-c5cc(-c6ccccc6O)nnc5N)cn4)CC3)C2)C(C)(C)C)cc1 (stereo partly drawn)
3. Cc1ncsc1-c1ccc(CNC(=O)[C@@H]2C[C@@H](O)CN2C(=O)[C@@H](NC(=O)[C@H]2CC[C@@H](CN3CCC(n4cc(-c5cc(-c6ccccc6O)nnc5N)cn4)CC3)CC2)C(C)(C)C)cc1
4. Cc1ncsc1-c1ccc(CNC(=O)[C@@H]2C[C@@H](O)CN2C(=O)[C@@H](NC(=O)[C@H]2CC[C@H](CN(C)Cc3cnc(N4C5CCC4CN(c4cc(-c6ccccc6O)nnc4N)C5)nc3)CC2)C(C)(C)C)cc1

["> 90%", "> 90%", "70 to 90%", "> 90%"]

====

target: SMARCA4 (Homo sapiens, UniProt P51532); construct: SMARCA2 and SMARCA4 protein degradation in MV4-11 cells; endogenous in cells; host or cells: MV4-11; assay: SMARCA4 Western blot MV4-11 degradation; assay type: cell-based; settings: MV4-11 cells, 24 h, read-out: SMARCA4 WB MV411 degradation 24 h: Average external-Abs DC50
Sequence (P51532 whole entry): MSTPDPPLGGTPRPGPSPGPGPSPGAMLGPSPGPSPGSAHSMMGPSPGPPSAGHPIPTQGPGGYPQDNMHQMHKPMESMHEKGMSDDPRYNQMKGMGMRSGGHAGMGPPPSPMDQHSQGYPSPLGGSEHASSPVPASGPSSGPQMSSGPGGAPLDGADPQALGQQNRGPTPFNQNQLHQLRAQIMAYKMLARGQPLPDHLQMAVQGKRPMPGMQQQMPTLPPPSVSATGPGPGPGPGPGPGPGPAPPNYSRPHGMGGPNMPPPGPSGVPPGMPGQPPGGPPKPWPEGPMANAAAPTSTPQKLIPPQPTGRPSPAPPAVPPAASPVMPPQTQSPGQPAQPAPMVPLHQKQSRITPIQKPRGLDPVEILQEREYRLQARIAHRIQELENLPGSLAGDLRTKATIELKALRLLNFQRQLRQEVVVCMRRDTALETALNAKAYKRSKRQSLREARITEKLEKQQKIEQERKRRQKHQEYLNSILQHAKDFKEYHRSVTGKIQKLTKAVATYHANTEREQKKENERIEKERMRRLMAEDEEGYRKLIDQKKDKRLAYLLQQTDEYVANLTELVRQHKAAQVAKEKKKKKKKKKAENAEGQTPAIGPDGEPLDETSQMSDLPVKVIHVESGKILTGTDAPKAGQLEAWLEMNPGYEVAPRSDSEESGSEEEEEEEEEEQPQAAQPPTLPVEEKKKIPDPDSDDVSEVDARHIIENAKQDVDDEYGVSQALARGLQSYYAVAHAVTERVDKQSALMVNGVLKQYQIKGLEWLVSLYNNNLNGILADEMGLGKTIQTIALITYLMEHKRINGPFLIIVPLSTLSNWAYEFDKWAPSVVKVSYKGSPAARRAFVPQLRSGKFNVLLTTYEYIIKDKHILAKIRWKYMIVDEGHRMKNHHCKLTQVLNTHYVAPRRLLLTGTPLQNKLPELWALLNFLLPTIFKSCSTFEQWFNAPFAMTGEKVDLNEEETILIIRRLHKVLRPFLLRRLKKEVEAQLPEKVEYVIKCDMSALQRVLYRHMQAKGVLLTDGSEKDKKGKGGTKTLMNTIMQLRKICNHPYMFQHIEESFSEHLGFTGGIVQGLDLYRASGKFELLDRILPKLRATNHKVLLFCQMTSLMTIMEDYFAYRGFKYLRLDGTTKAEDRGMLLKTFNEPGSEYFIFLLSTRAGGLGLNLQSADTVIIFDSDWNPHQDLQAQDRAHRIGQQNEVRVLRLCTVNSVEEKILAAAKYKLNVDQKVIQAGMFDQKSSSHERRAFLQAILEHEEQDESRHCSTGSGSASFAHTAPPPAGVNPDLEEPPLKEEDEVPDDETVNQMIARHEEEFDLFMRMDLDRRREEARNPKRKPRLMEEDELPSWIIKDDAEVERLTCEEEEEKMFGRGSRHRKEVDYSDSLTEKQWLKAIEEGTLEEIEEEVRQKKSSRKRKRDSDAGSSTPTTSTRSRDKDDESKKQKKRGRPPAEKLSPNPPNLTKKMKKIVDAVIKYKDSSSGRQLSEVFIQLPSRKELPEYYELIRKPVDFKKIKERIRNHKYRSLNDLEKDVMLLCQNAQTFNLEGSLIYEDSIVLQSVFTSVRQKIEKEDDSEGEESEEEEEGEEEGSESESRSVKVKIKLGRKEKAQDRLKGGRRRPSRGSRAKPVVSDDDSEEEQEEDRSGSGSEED
Could you please report measured DC50 for the items listed next?

{"molecule": "Cc1ncsc1-c1ccc(CNC(=O)[C@@H]2C[C@@H](O)CN2C(=O)[C@@H](NC(=O)[C@H](C)N2CCC(c3cnc(N4C5CCC4CN(c4cc(-c6ccccc6O)nnc4N)C5)nc3)CC2)C(C)(C)C)cc1 [I-481]", "DC50": "> 1 µM"}
{"molecule": "Cc1ncsc1-c1ccc(CNC(=O)[C@@H]2C[C@@H](O)CN2C(=O)[C@@H](NC(=O)[C@H]2CC[C@H](c3cnc(N4C5CCC4CN(c4cc(-c6ccccc6O)nnc4N)C5)nc3)CC2)C(C)(C)C)c(OC(F)(F)F)c1 [I-405]", "DC50": "0.1 to 0.5 µM"}
{"molecule": "Cc1ncsc1-c1ccc(CNC(=O)[C@@H]2C[C@@H](O)CN2C(=O)[C@@H](NC(=O)Cc2ccc(N3CCC(c4cnc(N5C6CCC5CN(c5cc(-c7ccccc7O)nnc5N)C6)nc4)CC3)cc2)C(C)(C)C)cc1 [I-513]", "DC50": "0.1 to 0.5 µM"}
{"molecule": "Cc1ncsc1-c1ccc(CNC(=O)[C@@H]2C[C@@H](O)CN2C(=O)[C@@H](NC(=O)C2CCC(CN3CCC(n4cc(-c5cc(-c6ccccc6O)nnc5N)cn4)CC3)CC2)C(C)(C)C)cc1 (stereo partly shown) [I-327]", "DC50": "> 1 µM"}
{"molecule": "Cc1ncsc1-c1ccc(CNC(=O)[C@@H]2C[C@@H](O)CN2C(=O)[C@@H](NC(=O)N2CCN(Cc3cnc(N4C5CCC4CN(c4cc(-c6ccccc6O)nnc4N)C5)nc3)CC2)C(C)(C)C)cc1 [I-339]", "DC50": "< 0.1 µM"}
{"molecule": "Cc1ncsc1-c1ccc(CNC(=O)[C@@H]2C[C@@H](O)CN2C(=O)[C@@H](NC(=O)CN2CCN(Cc3ccc(-c4cc(-c5ccccc5O)nnc4N)cc3)CC2)C(C)(C)C)cc1 [I-473]", "DC50": "0.1 to 0.5 µM"}
{"molecule": "Cc1ncsc1-c1ccc(CNC(=O)[C@@H]2C[C@@H](O)CN2C(=O)[C@@H](NC(=O)[C@H]2CC[C@@H](c3cnc(N4C5CCC4CN(c4cc(-c6ccccc6O)nnc4N)C5)nc3)CC2)C(C)(C)C)cc1 [I-336]", "DC50": "< 0.1 µM"}
{"molecule": "Cn1c(=O)n(C2CCC(=O)NC2=O)c2ccc(CCCCNC(=O)Cc3cnc(N4C5CCC4CN(c4cc(-c6ccccc6O)nnc4N)C5)nc3)cc21 (stereo not shown) [I-296]", "DC50": "< 0.1 µM"}
{"molecule": "Cc1ncsc1-c1ccc(CNC(=O)[C@@H]2C[C@@H](O)CN2C(=O)[C@@H](NC(=O)CCCCN2CCC[C@@H](Cn3cc(-c4cc(-c5ccccc5O)nnc4N)cn3)C2)C(C)(C)C)cc1 [I-472]", "DC50": "0.1 to 0.5 µM"}
{"molecule": "Cc1cc(CC(=O)N[C@H](C(=O)N2C[C@H](O)C[C@H]2C(=O)NCc2ccc(-c3scnc3C)cc2)C(C)(C)C)ccc1-c1cnc(N2C3CCC2CN(c2cc(-c4ccccc4O)nnc2N)C3)nc1 [I-345]", "DC50": "< 0.1 µM"}

For each of the molecules below, note its DC50.
1. Cc1ncsc1-c1ccc(CNC(=O)[C@@H]2C[C@@H](O)CN2C(=O)[C@@H](NC(=O)CCCCN2CCC(n3cc(-c4cc(-c5ccccc5O)nnc4N)cn3)CC2)C(C)(C)C)cc1 [I-460]
2. Cc1ncsc1-c1ccc(CNC(=O)[C@@H]2C[C@@H](O)CN2C(=O)[C@@H](NC(=O)Cc2ccc(-c3ccc(N4CCC(Cn5cc(-c6cc(-c7ccccc7O)nnc6N)cn5)CC4)cc3)cc2)C(C)(C)C)cc1 [I-508]
3. Cc1ncsc1-c1ccc(CNC(=O)[C@@H]2C[C@@H](O)CN2C(=O)[C@@H](NC(=O)[C@H]2CC3(C2)C[C@H](N2CCC(n4cc(-c5cc(-c6ccccc6O)nnc5N)cn4)CC2)C3)C(C)(C)C)cc1 (stereo partly shown) [I-389]
4. Cc1ncsc1-c1ccc(CNC(=O)[C@@H]2C[C@@H](O)CN2C(=O)[C@@H](NC(=O)CCCCN2CCN(Cc3ccc(-c4cc(-c5ccccc5O)nnc4N)cc3)CC2)C(C)(C)C)cc1 [I-476]

1: 0.1 to 0.5 µM; 2: > 1 µM; 3: < 0.1 µM; 4: 0.1 to 0.5 µM
